Molecular target: hCA XII (Homo sapiens, UniProt O43570)
Construct: gene CA12
Sequence (O43570 30-289 limits assumed): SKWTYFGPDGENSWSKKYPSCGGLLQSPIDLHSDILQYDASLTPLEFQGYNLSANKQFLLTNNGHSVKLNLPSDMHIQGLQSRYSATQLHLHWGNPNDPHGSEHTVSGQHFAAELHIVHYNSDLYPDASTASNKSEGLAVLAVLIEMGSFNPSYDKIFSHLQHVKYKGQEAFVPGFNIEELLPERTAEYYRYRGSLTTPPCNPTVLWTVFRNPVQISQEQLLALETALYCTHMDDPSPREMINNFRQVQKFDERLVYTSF
Experiment: biochemical
Details: read-out: Human Isoforms / hCA XII
PARAMETER: Ki (nM)
Please give a number only; it is taken to be in nM.

Known value: hCA XII (Homo sapiens, UniProt O43570) Ki of the compound N#Cc1ccc(S(=O)(=O)Nc2ccc(N=Nc3ccccc3)cc2)cc1 equals 760

Known value: hCA XII (Homo sapiens, UniProt O43570) Ki of the compound N#Cc1ccc(S(=O)(=O)Nc2ccc(N=Nc3ccccc3)cc2)c(Cl)c1 equals 1750

Known value: hCA XII (Homo sapiens, UniProt O43570) Ki of the compound CCS(=O)(=O)Nc1ccc(N=Nc2ccccc2)cc1 equals 3340

Known value: hCA XII (Homo sapiens, UniProt O43570) Ki of the compound O=S(=O)(Nc1ccc(N=Nc2ccccc2)cc1)c1ccccc1 equals 955

Known value: hCA XII (Homo sapiens, UniProt O43570) Ki of the compound O=[N+]([O-])c1cccc(S(=O)(=O)Nc2ccc(N=Nc3ccccc3)cc2)c1 equals 215

Known value: hCA XII (Homo sapiens, UniProt O43570) Ki of the compound CS(=O)(=O)Nc1ccc(N=Nc2ccccc2)cc1 equals 2240

Known value: hCA XII (Homo sapiens, UniProt O43570) Ki of the compound O=S(=O)(Cc1ccccc1)Nc1ccc(N=Nc2ccccc2)cc1 equals 2250

Known value: hCA XII (Homo sapiens, UniProt O43570) Ki of the compound Cc1ccc(S(=O)(=O)Nc2ccc(N=Nc3ccccc3)cc2)cc1[N+](=O)[O-] equals 847

Known value: hCA XII (Homo sapiens, UniProt O43570) Ki of the compound COc1ccc(S(=O)(=O)Nc2ccc(N=Nc3ccccc3)cc2)c(OC)c1 equals 894

Known value: hCA XII (Homo sapiens, UniProt O43570) Ki of the compound O=S(=O)(Nc1ccc(N=Nc2ccccc2)cc1)c1ccc(Cl)s1 equals 4120

====

Can you tell me MIC for the items I'm about to list?
Test system: H. pylori ATCC 43504
Construct: ATCC 43504
Test: microbe, parasite or virus in culture
Set-up: species or system Helicobacter pylori ATCC 43504; MIC by broth microdilution, alamarBlue and CFU count; MBC by CFU count
Settings: Helicobacter pylori, ATCC43504
Please give a number only; it is taken to be in µg/mL.

response.value for NS(=O)(=O)c1ccc(/N=N/c2ccc(O)cc2C(F)(F)F)cc1 (field: MIC) = 8

response.value for Cc1ccc(S(=O)(=O)Nc2ccc(N=Nc3ccccc3)cc2)cc1[N+](=O)[O-] (field: MIC) = 8

response.value for Cc1cc(/N=N/c2ccc(S(N)(=O)=O)cc2)ccc1O (field: MIC) = 32

response.value for N#Cc1ccc(S(=O)(=O)Nc2ccc(N=Nc3ccccc3)cc2)cc1 (field: MIC) = 32

response.value for COc1cc(/N=N/c2ccc(S(N)(=O)=O)cc2)ccc1O (field: MIC) = 32

response.value for CS(=O)(=O)Nc1ccc(N=Nc2ccccc2)cc1 (field: MIC) = 16

response.value for CC1(C)S[C@@H]2[C@H](NC(=O)[C@H](N)c3ccc(O)cc3)C(=O)N2[C@H]1C(=O)O (field: MIC) = 0.064

response.value for O=S(=O)(Nc1ccc(N=Nc2ccccc2)cc1)c1ccccc1 (field: MIC) = 16

response.value for Cc1ccc(O)c(/N=N/c2ccc(S(N)(=O)=O)cc2)c1 (field: MIC) = 32

response.value for N#Cc1ccc(S(=O)(=O)Nc2ccc(N=Nc3ccccc3)cc2)c(Cl)c1 (field: MIC) = 4

response.value for O=[N+]([O-])c1cccc(S(=O)(=O)Nc2ccc(N=Nc3ccccc3)cc2)c1 (field: MIC) = 16

response.value for CCS(=O)(=O)Nc1ccc(N=Nc2ccccc2)cc1 (field: MIC) = 16

response.value for Cc1cc(O)cc(C)c1/N=N/c1ccc(S(N)(=O)=O)cc1 (field: MIC) = 16

response.value for O=S(=O)(Cc1ccccc1)Nc1ccc(N=Nc2ccccc2)cc1 (field: MIC) = 64

response.value for Cc1cc(O)ccc1/N=N/c1ccc(S(N)(=O)=O)cc1 (field: MIC) = 16

response.value for NS(=O)(=O)c1ccc(/N=N/c2ccc(O)c(C(F)(F)F)c2)cc1 (field: MIC) = 64
